A set of compounds tested on Tyrosine-protein phosphatase non-receptor type 1 (Homo sapiens), with measured Ki:
MEASURE NAME: Ki (µM)

COMPOUND: NC(=O)C(CNC(=O)CCCCCNC1=NS(=O)(=O)c2ccccc21)NC(=O)Cc1ccc(CNC(=O)[C@H](C2CC2)n2cc(CC3CCCCC3)nn2)cc1 (stereo partly drawn)
TESTED SYSTEM: Tyrosine-protein phosphatase non-receptor type 1 (Homo sapiens)
Ki [µM]: 6.8

P. CCC(C)C(NC1=NS(=O)(=O)c2ccccc21)C(=O)NC[C@@H](NC(=O)C1CCCC(NC(=O)C(C2CC2)n2cc(CC3CCCCC3)nn2)C1)C(N)=O (stereo partly drawn)
Q. CCCCC(NC1=NS(=O)(=O)c2ccccc21)C(=O)NCC(NC(=O)c1ccccc1NC(=O)c1n[nH]c2ccc([N+](=O)[O-])cc12)C(=O)NC(CCCCNC(=O)CCCC[C@@H]1SCC2NC(=O)NC21)C(N)=O (stereo partly drawn)
Recorded Ki values differ for P and Q ; which one is higher? Answer format: the label of the selected item.
P
(P: 3.4 µM, Q: 1.2 µM)

###

Sequence of the target: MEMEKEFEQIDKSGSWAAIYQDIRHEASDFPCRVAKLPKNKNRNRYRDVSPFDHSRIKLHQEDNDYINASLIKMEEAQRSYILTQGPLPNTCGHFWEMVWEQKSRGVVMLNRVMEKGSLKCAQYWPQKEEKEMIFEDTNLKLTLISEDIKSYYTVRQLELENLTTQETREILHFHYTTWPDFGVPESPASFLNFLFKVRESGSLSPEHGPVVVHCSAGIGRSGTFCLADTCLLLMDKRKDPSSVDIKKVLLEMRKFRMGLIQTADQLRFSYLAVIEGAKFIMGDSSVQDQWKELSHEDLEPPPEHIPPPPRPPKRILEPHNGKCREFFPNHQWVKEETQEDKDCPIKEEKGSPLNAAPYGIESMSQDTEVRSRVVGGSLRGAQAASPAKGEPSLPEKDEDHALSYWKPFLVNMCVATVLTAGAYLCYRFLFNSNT
MEASURE NAME: Ki (nM)

COMPOUND: CCCCC(NC1=NS(=O)(=O)c2ccccc21)C(=O)NC[C@@H](NC(=O)C1CCCC(NC(=O)[C@H](CC(C)(C)C)n2cc(CC3CCCCC3)nn2)C1)C(N)=O (stereo partly drawn)
MEASURE NAME: Ki
MEASURE UNIT: nM
VAL: 3100

COMPOUND: CCCCC(NC1=NS(=O)(=O)c2ccccc21)C(=O)NC[C@@H](NC(=O)C1(NC(=O)[C@H](CC(C)(C)C)n2cc(CC3CCCCC3)nn2)CC1)C(=O)NC(CCCCNC(=O)CCCC[C@@H]1SCC2NC(=O)NC21)C(N)=O (stereo partly drawn)
MEASURE NAME: Ki
MEASURE UNIT: nM
VAL: 2200

COMPOUND: CCCCC(NC1=NS(=O)(=O)c2ccccc21)C(=O)NCC(NC(=O)COCCOCCNC(=O)C(C1CC1)n1cc(-c2cccc(OC)c2)nn1)C(=O)NC(CCCCNC(=O)CCCC[C@@H]1SCC2NC(=O)NC21)C(N)=O (stereo partly drawn)
MEASURE NAME: Ki
MEASURE UNIT: nM
VAL: 2900

###

# TESTED SYSTEM: Tyrosine-protein phosphatase non-receptor type 1 (Homo sapiens)
# Sequence (P18031 whole entry): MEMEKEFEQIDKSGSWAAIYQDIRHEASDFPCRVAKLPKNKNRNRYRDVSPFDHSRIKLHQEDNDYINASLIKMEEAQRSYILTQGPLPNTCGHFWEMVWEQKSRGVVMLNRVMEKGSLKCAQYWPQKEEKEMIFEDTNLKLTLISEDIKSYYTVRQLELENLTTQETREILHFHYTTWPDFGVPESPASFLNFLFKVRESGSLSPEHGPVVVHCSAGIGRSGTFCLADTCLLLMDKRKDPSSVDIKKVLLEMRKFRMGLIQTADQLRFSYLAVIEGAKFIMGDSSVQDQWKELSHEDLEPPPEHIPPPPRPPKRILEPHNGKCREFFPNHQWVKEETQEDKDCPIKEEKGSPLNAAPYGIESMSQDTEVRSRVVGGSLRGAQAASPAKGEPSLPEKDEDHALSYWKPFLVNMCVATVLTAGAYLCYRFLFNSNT
pKd: −log10 of the molar value.
MEASURE NAME: pKd

MOLECULE: CCCCC(NC1=NS(=O)(=O)c2ccccc21)C(=O)NCC(NC(=O)c1ccccc1NC(=O)c1n[nH]c2ccc([N+](=O)[O-])cc12)C(N)=O (configuration not stated)
pKd: 6.57
//
MOLECULE: CCCCC(NC1=NS(=O)(=O)c2ccccc21)C(=O)NCC(NC(=O)c1ccccc1NC(=O)c1n[nH]c2ccc([N+](=O)[O-])cc12)C(=O)NC(CCCCNC(=O)CCCC[C@@H]1SCC2NC(=O)NC21)C(N)=O (some centres not stated)
pKd: 6.57
//
MOLECULE: CCCCC(NC1=NS(=O)(=O)c2ccccc21)C(=O)NC[C@@H](NC(=O)C1(NC(=O)[C@H](CC(C)(C)C)n2cc(CC3CCCCC3)nn2)CC1)C(=O)NC(CCCCNC(=O)CCCC[C@@H]1SCC2NC(=O)NC21)C(N)=O (some centres not stated)
pKd: 6.68
//
MOLECULE: CCCCC(NC1=NS(=O)(=O)c2ccccc21)C(=O)NC[C@@H](NC(=O)C1CCCC(NC(=O)[C@H](CC(C)(C)C)n2cc(CC3CCCCC3)nn2)C1)C(N)=O (some centres not stated)
pKd: 7.05
//
MOLECULE: CCCCC(NC1=NS(=O)(=O)c2ccccc21)C(=O)NC[C@@H](NC(=O)C1(NC(=O)[C@H](CC(C)(C)C)n2cc(CC3CCCCC3)nn2)CC1)C(N)=O (some centres not stated)
pKd: 6.68

a. CCCCC(NC1=NS(=O)(=O)c2ccccc21)C(=O)NCC(NC(=O)COCCOCCNC(=O)C(C1CC1)n1cc(-c2cccc(OC)c2)nn1)C(=O)NC(CCCCNC(=O)CCCC[C@@H]1SCC2NC(=O)NC21)C(N)=O (some centres not stated)
b. CC(C)C(NC1=NS(=O)(=O)c2ccccc21)C(=O)NC[C@@H](NC(=O)CC1(NC(=O)[C@H](CC(C)(C)C)n2cc(CC3CCCCC3)nn2)CCCCC1)C(N)=O (some centres not stated)
Pick one, a or b : lowest reported pKd. Answer format: the label of the selected item.
a

###

# TESTED SYSTEM: Tyrosine-protein phosphatase non-receptor type 2 (Homo sapiens, UniProt P17706)
# Sequence (P17706 whole entry, the tested form may be a part): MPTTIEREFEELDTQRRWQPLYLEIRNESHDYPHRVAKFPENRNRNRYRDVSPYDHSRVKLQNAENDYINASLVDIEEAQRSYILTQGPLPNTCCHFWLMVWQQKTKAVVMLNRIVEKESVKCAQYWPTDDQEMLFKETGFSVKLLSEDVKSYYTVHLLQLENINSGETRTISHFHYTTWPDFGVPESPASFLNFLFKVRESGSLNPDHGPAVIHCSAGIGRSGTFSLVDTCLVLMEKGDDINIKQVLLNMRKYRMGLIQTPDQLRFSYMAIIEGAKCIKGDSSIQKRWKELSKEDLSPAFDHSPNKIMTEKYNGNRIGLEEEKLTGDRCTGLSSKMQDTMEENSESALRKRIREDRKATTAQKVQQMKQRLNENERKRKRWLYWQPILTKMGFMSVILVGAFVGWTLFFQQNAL
# ASSAY REMARKS: Inhibition of recombinant human TCPTP (1 to 317 residues) expressed in Escherichia coli using DifMup as substrate preincubated for 30 mins followed by substrate addition and measured immediately
MEASURE NAME: Ki (µM)

COMPOUND: CC(C)C(NC1=NS(=O)(=O)c2ccccc21)C(=O)NC[C@@H](NC(=O)CC1(NC(=O)[C@H](CC(C)(C)C)n2cc(CC3CCCCC3)nn2)CCCCC1)C(N)=O (stereo not given in full)
Ki, µM: 6.2

COMPOUND: CCCCC(NC1=NS(=O)(=O)c2ccccc21)C(=O)NCC(NC(=O)COCCOCCNC(=O)C(C1CC1)n1cc(-c2cccc(OC)c2)nn1)C(N)=O (stereo not given)
Ki, µM: 7.01

COMPOUND: CCCCC(NC1=NS(=O)(=O)c2ccccc21)C(=O)NC[C@@H](NC(=O)C1CCCC(NC(=O)[C@H](CC(C)(C)C)n2cc(CC3CCCCC3)nn2)C1)C(N)=O (stereo not given in full)
Ki, µM: 12.2

COMPOUND: CC(C)C(NC1=NS(=O)(=O)c2ccccc21)C(=O)NC[C@@H](NC(=O)CC1(NC(=O)[C@H](CC(C)(C)C)n2cc(CC3CCCCC3)nn2)CCCCC1)C(=O)NC(CCCCNC(=O)CCCC[C@@H]1SCC2NC(=O)NC21)C(N)=O (stereo not given in full)
Ki, µM: 6.2

COMPOUND: CCC(C)C(NC1=NS(=O)(=O)c2ccccc21)C(=O)NC[C@@H](NC(=O)C1CCCC(NC(=O)C(C2CC2)n2cc(CC3CCCCC3)nn2)C1)C(N)=O (stereo not given in full)
Ki, µM: 0.8

COMPOUND: CCCCC(NC1=NS(=O)(=O)c2ccccc21)C(=O)NC[C@@H](NC(=O)C1(NC(=O)[C@H](CC(C)(C)C)n2cc(CC3CCCCC3)nn2)CC1)C(=O)NC(CCCCNC(=O)CCCC[C@@H]1SCC2NC(=O)NC21)C(N)=O (stereo not given in full)
Ki, µM: 7.6

a. NC(=O)C(CCCCNC(=O)CCCC[C@@H]1SCC2NC(=O)NC21)NC(=O)C(CNC(=O)CCCCCNC1=NS(=O)(=O)c2ccccc21)NC(=O)Cc1ccc(CNC(=O)[C@H](C2CC2)n2cc(CC3CCCCC3)nn2)cc1 (stereo not given in full)
b. CCCCC(NC1=NS(=O)(=O)c2ccccc21)C(=O)NC[C@@H](NC(=O)C1CCCC(NC(=O)[C@H](CC(C)(C)C)n2cc(CC3CCCCC3)nn2)C1)C(=O)NC(CCCCNC(=O)CCCC[C@@H]1SCC2NC(=O)NC21)C(N)=O (stereo not given in full)
Recorded Ki values differ for a and b ; which one is higher? Answer format: the label of the selected item.
b
(b: 12.2 µM, a: 3.01 µM)
